# system.under.test: T1, FOLR1-Fc (UniProt P15328 25-234, limits assumed)
# T1 construct: also called FOLR1 (ELISA coating); not shown: Fc part
# experimental.protocol: ELISA, FOLR1-Fc coated
# Description: For the purpose of comparing the binding affinities of the primarily selected clones with each other, ELISA was performed at different clone concentrations in the following manner. […] After about 5 minutes, 25 μL of 1 M H₂SO₄ was added to each well to stop the reaction, and the absorbance at a wavelength of 450 nm was measured. From the measurement results, the EC (Effector concentration) value was calculated using the GraphPad Prism 7 program. […]
property.measured: Relative Potency

Given Modified antibody vAb2 (antibody, V domains shown, Carries modified CDR-L1 and CDR-L2) VH: EVQLVESGGGVVQPGRSLRLSCSASGFTFSGYGLSWVRQAPGKGLEWVAMISSGGSYTYYADSVKGRFAISRDNAKNTLFLQMDSLRPEDTGVYFCARHGDDPAWFAYWGQGTPVTVSS VL: DIQLTQSPSSLSASVGDRVTITCSASSGLSSSYLHWYQQKPGKAPKPWIYGTSSRASGVPSRFSGSGSGTDYTFTISSLQPEDIATYYCQQWSSYPYMYTFGQGTKVEIK , state its recorded Relative Potency.
3.04 fold against parent antibody
